Origin of the recorded values: patent USRE37623E1

Test: Pharmacokinetics of PSAU in CD-1 mice
Type: in vivo
Settings: mouse, plasma, ip; PSAU 30 mg/kg i.p., female CD-1 mice; read-out: MRT, mean residence time
recorded endpoint: MRT (h)
Give bare numbers, in h.

Value of MRT reported for the molecule `O=c1[nH]c(=O)n(COCCO)cc1[Se]c1ccccc1` is 1.28

---

Target: DHUDase (Mus musculus, UniProt Q8CHR6)
Sequence (Q8CHR6 1-1025): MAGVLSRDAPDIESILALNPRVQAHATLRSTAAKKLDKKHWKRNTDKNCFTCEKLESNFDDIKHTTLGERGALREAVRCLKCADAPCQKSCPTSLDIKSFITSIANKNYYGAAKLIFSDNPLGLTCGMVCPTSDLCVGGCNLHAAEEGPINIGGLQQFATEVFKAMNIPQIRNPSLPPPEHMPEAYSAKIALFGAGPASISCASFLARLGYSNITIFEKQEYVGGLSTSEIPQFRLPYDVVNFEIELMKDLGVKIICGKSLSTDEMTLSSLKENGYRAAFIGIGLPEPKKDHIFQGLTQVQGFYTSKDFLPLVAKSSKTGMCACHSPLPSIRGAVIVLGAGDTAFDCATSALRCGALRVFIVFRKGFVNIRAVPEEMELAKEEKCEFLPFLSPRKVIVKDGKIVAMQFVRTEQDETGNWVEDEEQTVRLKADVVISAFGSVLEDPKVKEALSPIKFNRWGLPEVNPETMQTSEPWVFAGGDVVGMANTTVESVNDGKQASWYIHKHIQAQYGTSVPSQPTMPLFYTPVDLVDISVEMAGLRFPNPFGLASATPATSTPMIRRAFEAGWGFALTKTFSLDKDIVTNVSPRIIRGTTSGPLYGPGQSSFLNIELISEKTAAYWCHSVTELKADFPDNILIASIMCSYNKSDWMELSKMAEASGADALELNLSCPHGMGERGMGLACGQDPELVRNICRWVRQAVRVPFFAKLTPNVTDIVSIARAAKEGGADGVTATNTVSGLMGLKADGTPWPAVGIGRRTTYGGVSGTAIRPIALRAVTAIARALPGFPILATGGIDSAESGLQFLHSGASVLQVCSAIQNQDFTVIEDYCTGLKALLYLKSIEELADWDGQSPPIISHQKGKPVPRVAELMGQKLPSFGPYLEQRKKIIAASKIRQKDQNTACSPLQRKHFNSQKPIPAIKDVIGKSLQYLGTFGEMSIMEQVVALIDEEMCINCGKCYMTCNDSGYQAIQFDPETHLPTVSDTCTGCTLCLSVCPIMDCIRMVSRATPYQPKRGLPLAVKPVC
recorded endpoint: Ki (µM)
Give bare numbers, in µM.

Value of Ki reported for the molecule `O=c1[nH]cc([Se]c2ccccc2)c(=O)[nH]1` is 4.8
